assay-overview: Solubility of exemplary therapeutic agents in organic solvents
condition-summary: solvent Acetone
Where a name gives a salt, the structure may show the parent alone.
measured-endpoint: Solubility

Use the examples below as a reference point.
## Input Request the reported Solubility associated with CC(C)c1nc(N(C)S(C)(=O)=O)nc(-c2ccc(F)cc2)c1/C=C/[C@@H](O)C[C@@H](O)CC(=O)O [Rosuvastatin Ca]
## Output soluble

## Input For OCCOCCN1CCN(C2=Nc3ccccc3Sc3ccccc32)CC1 [Quetiapine fumarate] then?
## Output non-soluble

## Input For O=C(c1ccc(OCCN2CCCCC2)cc1)c1c(-c2ccc(O)cc2)sc2cc(O)ccc12 [Raloxifene HCl] then?
## Output non-soluble

## Input For CN1C[C@H]2c3ccccc3Oc3ccc(Cl)cc3[C@@H]2C1 (relative stereo) [Asenapine maleate] then?
## Output soluble

Here are 2 compounds. What values of Solubility were reported for them?
1. O=C1CCc2ccc(OCCCCN3CCN(c4cccc(Cl)c4Cl)CC3)cc2N1 [Aripiprazole]
2. CNCC[C@H](Oc1cccc2ccccc12)c1cccs1 [Duloxetine HCl]

## Output
1. soluble
2. non-soluble
